Below, each entry is listed with its recorded residual activity.
- target: Serine/threonine-protein kinase TAO2 (Homo sapiens)
- Sequence (whole entry): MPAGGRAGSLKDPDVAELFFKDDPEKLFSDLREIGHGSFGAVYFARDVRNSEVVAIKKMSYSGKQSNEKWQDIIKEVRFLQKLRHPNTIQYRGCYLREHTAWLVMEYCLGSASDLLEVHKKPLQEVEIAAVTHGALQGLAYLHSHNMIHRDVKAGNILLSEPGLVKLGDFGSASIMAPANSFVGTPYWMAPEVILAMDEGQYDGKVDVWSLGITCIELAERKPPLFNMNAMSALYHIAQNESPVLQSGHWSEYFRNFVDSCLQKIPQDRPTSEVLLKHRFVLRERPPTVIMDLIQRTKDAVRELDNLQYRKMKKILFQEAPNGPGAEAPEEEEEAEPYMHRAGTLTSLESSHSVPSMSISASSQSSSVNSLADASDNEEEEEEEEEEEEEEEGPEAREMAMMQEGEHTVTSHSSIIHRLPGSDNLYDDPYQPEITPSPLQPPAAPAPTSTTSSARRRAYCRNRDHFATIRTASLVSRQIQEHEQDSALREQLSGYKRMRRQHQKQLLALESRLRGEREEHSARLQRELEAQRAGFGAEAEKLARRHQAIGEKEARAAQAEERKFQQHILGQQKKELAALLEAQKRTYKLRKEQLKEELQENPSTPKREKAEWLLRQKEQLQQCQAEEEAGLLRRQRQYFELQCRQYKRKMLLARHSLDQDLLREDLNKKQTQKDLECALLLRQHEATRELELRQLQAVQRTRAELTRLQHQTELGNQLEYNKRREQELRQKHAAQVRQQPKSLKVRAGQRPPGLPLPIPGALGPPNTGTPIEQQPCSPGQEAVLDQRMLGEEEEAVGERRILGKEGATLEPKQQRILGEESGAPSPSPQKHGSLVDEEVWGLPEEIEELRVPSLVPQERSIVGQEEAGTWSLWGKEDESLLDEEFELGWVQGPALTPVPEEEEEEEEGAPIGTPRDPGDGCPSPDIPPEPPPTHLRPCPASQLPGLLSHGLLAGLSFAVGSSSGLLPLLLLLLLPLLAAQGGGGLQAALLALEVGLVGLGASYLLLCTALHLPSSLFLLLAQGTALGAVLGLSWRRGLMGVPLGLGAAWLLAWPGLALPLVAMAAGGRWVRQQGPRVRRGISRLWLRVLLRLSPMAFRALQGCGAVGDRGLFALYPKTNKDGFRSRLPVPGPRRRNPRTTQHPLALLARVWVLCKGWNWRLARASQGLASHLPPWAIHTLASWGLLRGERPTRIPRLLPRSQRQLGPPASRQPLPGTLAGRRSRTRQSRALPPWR
- condition-summary: at 1 µM
Kindly provide the numeric value in % only, without the unit symbol.

- mol: "COc1ccc(CNc2nc(N(CCO)CCO)nc3c2ncn3C(C)C)cc1"
  units-text: "%"
  observed-result: 96
- mol: "Cc1cc2ncc(-c3ccccc3)nc2cc1C"
  units-text: "%"
  observed-result: 106
- mol: "CC(=O)O/N=C1\\C(=C2\\C(=O)Nc3cc(Br)ccc32)Nc2ccccc21"
  units-text: "%"
  observed-result: 81
- mol: "COc1ccc(C(=O)Nc2sc3c(c2C(N)=O)CCCC3)cc1OC"
  units-text: "%"
  observed-result: 92

Reported Serine/threonine-protein kinase TAO2 (Homo sapiens) residual activity for item O=[N+]([O-])c1ccc(-c2nc(-c3ccc(F)cc3)c(-c3ccncc3)[nH]2)cc1 was 109

Observed residual activity on Serine/threonine-protein kinase TAO2 (Homo sapiens), entry COc1cc2ncnc(Nc3ccc(Oc4ccccc4)cc3)c2cc1OC , equals 110

Form field residual activity for item N#CCCc1ccc2c(c1)-c1[nH]c3ccc([N+](=O)[O-])cc3c1CC(=O)N2 on Serine/threonine-protein kinase TAO2 (Homo sapiens): 64

With Serine/threonine-protein kinase TAO2 (Homo sapiens) as the test system, CC(C)n1cnc2c(NCc3ccccc3)nc(NCCCO)nc21 showed residual activity of 100

Entry CCOc1cc2ncnc(Nc3cccc(Br)c3)c2cc1OCC : residual activity on Serine/threonine-protein kinase TAO2 (Homo sapiens) = 101

Cc1ccc(S(=O)(=O)/C=C/C#N)cc1 on Serine/threonine-protein kinase TAO2 (Homo sapiens) gives residual activity = 88

Item CO[C@H]1C[C@@H]2CC[C@@H](C)[C@@](O)(O2)C(=O)C(=O)N2CCCC[C@H]2C(=O)O[C@H]([C@H](C)C[C@@H]2CC[C@@H](O)[C@H](OC)C2)CC(=O)[C@H](C)/C=C(\C)[C@@H](O)[C@@H](OC)C(=O)[C@H](C)C[C@H](C)/C=C/C=C/C=C/1C was tested on Serine/threonine-protein kinase TAO2 (Homo sapiens); the reported residual activity is 99

Here COc1ccc(OC)c2c(=S)c3ccccc3[nH]c12 was tested on Serine/threonine-protein kinase TAO2 (Homo sapiens), and its residual activity came to 90

Simply: CNc1cc2c(Nc3cccc(Br)c3)ncnc2cn1 , Serine/threonine-protein kinase TAO2 (Homo sapiens), residual activity = 110
